Kindly state pIC50 for each of the entries shown.
- Test system: K562
- assayNotes: Antiproliferative activity against human K562 cells assessed as inhibition of cell proliferation measured after 72 hrs by MTT assay
- Format: functional, cell-based
- testParameters: K562, 72 h
Give bare numbers, as −log10 of the molar value.

molecule=Cc1c(C(=O)N2CC[C@H](N)C2)c2c(O)c3c(c(O)c2n1Cc1ccccc1)C(=O)c1ccccc1C3=O valuetype=pIC50 numericresult=6.15
molecule=Cc1c(C(=O)N2CC[C@H](N)C2)c2c(O)c3c(c(O)c2n1C)C(=O)c1ccccc1C3=O valuetype=pIC50 numericresult=5.92
molecule=O=C1c2ccccc2C(=O)c2c1c(O)c1scc(C(=O)N[C@H]3CCNC3)c1c2O valuetype=pIC50 numericresult=6.15
molecule="Cc1[nH]c2c(O)c3c(c(O)c2c1C(=O)NC1CCCNC1)C(=O)c1ccccc1C3=O (centres undefined)" valuetype=pIC50 numericresult=5.49
molecule=CCn1c(C)c(C(=O)N2CC[C@H](N)C2)c2c(O)c3c(c(O)c21)C(=O)c1ccccc1C3=O valuetype=pIC50 numericresult=5.77

Provide pIC50 for all items below, preserving their order.
1. N[C@@H]1CN(C(=O)c2csc3c(O)c4c(c(O)c23)C(=O)c2ccccc2C4=O)C[C@H]1N
2. Cc1[nH]c2c(O)c3c(c(O)c2c1C(=O)N1C[C@@H](N)[C@H](N)C1)C(=O)c1ccccc1C3=O
3. CC(=O)Cn1c(C)c(C(=O)N2CC[C@H](N)C2)c2c(O)c3c(c(O)c21)C(=O)c1ccccc1C3=O
4. O=C1c2ccccc2C(=O)c2c1c(O)c1scc(C(=O)N[C@@H]3CCNC3)c1c2O

Result:
5.89
5.62
5.66
6.30

---

For each record, write down the corresponding selectivity ratio.
- assayNotes: Selectivity index, ratio of IC50 for human TERT-RPE1 cells to IC50 for human HCT-116 cells
- Assay type: toxicity
- testParameters: TERT-RPE1 cells and HCT-116 cells, read-out: Ratio IC50
Answers are plain numbers.

mol=N[C@H]1CCN(C(=O)c2coc3c(O)c4c(c(O)c23)C(=O)c2ccccc2C4=O)C1 numericresult=9

I would be grateful if you could provide selectivity ratio for each of the following entries.
1. N[C@H]1CCN(C(=O)c2csc3c(O)c4c(c(O)c23)C(=O)c2ccccc2C4=O)C1
2. Cc1[nH]c2c(O)c3c(c(O)c2c1C(=O)N1CC[C@H](N)C1)C(=O)c1ccccc1C3=O

Result:
[2, 18]

---

Kindly state IC50 for each of the entries shown.
- Test system: NCI-H460
- assayNotes: Antiproliferative activity against human NCI-H460 cells assessed as inhibition of cell proliferation measured after 72 hrs by MTT assay
- Type: functional, cell-based
- testParameters: NCI-H460, 72 h
Numbers only, in nM.

molecule="Cc1[nH]c2c(O)c3c(c(O)c2c1C(=O)NC1CCCNC1)C(=O)c1ccccc1C3=O (stereo not drawn)" valuetype=IC50 numericresult=1000
molecule=O=C1c2ccccc2C(=O)c2c1c(O)c1scc(C(=O)NC3CCNCC3)c1c2O valuetype=IC50 numericresult=1200

Hi, could you look up IC50 for each item in my list?
1. Cc1c(C(=O)N2CC[C@H](N)C2)c2c(O)c3c(c(O)c2n1CC(=O)O)C(=O)c1ccccc1C3=O
2. O=C1c2ccccc2C(=O)c2c1c(O)c1scc(C(=O)N[C@H]3CCNC3)c1c2O
3. NC1CCCN(C(=O)c2csc3c(O)c4c(c(O)c23)C(=O)c2ccccc2C4=O)C1 (racemic)
4. Cc1[nH]c2c(O)c3c(c(O)c2c1C(=O)N[C@@H]1CCNC1)C(=O)c1ccccc1C3=O
5. COc1cccc2c1C(=O)c1c(O)c3c(c(O)c1C2=O)C[C@@](O)(C(=O)CO)C[C@@H]3O[C@H]1C[C@H](N)[C@H](O)[C@H](C)O1
6. N[C@H]1CCN(C(=O)c2csc3c(O)c4c(c(O)c23)C(=O)c2ccccc2C4=O)C1

Result:
1: 20000; 2: 1400; 3: 4300; 4: 4400; 5: 400; 6: 2100
